Recorded IC50 for the following binders
Target: T1, Cynomolgus CXCR2 (cynomolgus, UniProt Q28519 3-353 (rhesus entry))
T1 construct: On transfected HEK293T or RBL-2H3 cells; native on cynomolgus neutrophils in the WBSC assay; also called cCXCR2; cynoCXCR2
T1 chain: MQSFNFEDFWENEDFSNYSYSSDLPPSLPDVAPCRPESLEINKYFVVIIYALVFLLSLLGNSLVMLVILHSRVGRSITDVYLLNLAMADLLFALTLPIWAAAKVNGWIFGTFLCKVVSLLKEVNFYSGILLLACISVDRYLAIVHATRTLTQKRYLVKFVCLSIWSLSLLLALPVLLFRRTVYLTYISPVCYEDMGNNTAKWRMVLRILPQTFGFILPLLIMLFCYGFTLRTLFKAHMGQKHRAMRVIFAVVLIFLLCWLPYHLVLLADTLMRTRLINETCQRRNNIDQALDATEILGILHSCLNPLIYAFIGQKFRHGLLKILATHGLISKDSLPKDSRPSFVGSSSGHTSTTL
Test: FACS competition vs 3 nM FMAT-Blue Gro-α
Procedure: Multivalent anti-CXCR2Nanobodies were titrated against 3 nM FMAT-Blue-labeled Gro-α in the FACS ligand competition assay on human and cynomolgus CXCR2 (Table 14). On human CXCR2, blocking potencies range between double digit nM and sub-nM whereas on cynomolgus CXCR2, they range between single and double digit nM.
property_name: IC50 (nM)

CXCR20016 (other, Two different VHH joined by a GlySer linker; also called 137B7-35GS-2B2; not shown: C-terminal c-myc tag and His6 tag coded by pAX100) EVQLVESGGGLVQPGGSVRLSCVASGIIFRLSALGWTRQGPGKAREWVAGINSDGTTNYADPVKGRFTISRDNAKNTIYLHMDMLKPEDTAVYYCASGKYRGQGTQVTVSSGGGGSGGGGSGGGGSGGGGSGGGGSGGGGSGGGGSEVQLVESGGELVQPGGSLRLSCAASGSILTINAMGWYRQAPGKQRELVVRRTRGGSTTYQDSVKGRFTISADIAKKTMYLQMNSLKPEDTAVYYCMLDDRGGVYWGQGTQVTVSS	5.7
CXCR20025 (bispecific antibody, Biparatopic: two VHH joined by a GlySer linker; also called 163D2-35GS-127D1; not shown: C-terminal c-myc tag and His6 tag coded by pAX100) EVQLVESGGGLVQAGGSLRLSCAASGRTFSDYAMGWFRQAPGKEREFVAAITWNGGRVFYTASVKGRFTISRDNAKNTMYLQMNSLKPEDTAVYYCAADKDRRTDYLGHPVAYWGQGTQVTVSSGGGGSGGGGSGGGGSGGGGSGGGGSGGGGSGGGGSEVQLVESGGGLVQAGESLRLSCAASGSTFDFKVMGWYRQPPGKQREGVAAIRLSGNMHYAESVKGRFTISKANAKNTVYLQMNSLRPEDTAVYYCKVNIRGQDYWGQGTQVTVSS	2.08
